- measured-target: HIV-1 NL43 Env (HIV-1 strain NL43)
- assay-details: cell-based or functional assay
property-label: IC50 neutralization, 1 hour virus/Ab incubation (µg/mL)
One number for each entry, in µg/mL.

Could you report IC50 neutralization, 1 hour virus/Ab incubation for every entry in the following list?
1. 1456_P20 (PG20) (antibody, human IgG1, kappa, V domains shown) VH: QVRLVQSGPEVKKPGSSVTVSCQASGGTFSSYAFTWVRQAPGQGLEWLGMVTPIFGEAKYSQRFEGRVTITADESTSTTSIELRGLTSEDTAIYYCARDRRAVPIATDNWLDPWGQGTLVTVSS VL: DIQLTQSPSSLSASVGDRVSITCRASQTINNYLNWYQQTPGKAPKLLIYGASNLQNGVPSRFSGSGSGTDFTLTISSLQPEDFATYYCQQSFSTPRTFGQGTRLDIKR
2. 1496_C09 (PG9) (TCN-109) (antibody, V domains shown) VH: QRLVESGGGVVQPGSSLRLSCAASGFDFSRQGMHWVRQAPGQGLEWVAFIKYDGSEKYHADSVWGRLSISRDNSKDTLYLQMNSLRVEDTATYFCVREAGGPDYRNGYNYYDFYDGYYNYHYMDVWGKGTTVTVSS VL: QSALTQPASVSGSPGQSITISCNGTSNDVGGYESVSWYQQHPGKAPKVVIYDVSKRPSGVSNRFSGSKSGNTASLTISGLQAEDEGDYYCKSLTSTRRRVFGTGTKLTVLG
3. 1495_C14 (PGC14) (antibody, human IgG1, lambda, V domains shown) VH: DGHLVQSGVEVKKTGATVKISCKVSGYSFIDYYLHWVQRAPGKGLEWVGLIDPENGEARYAEKFQGRVTIIADTSIDTGYMEMRSLKSEDTAVYFCAAGAVGADSGSWFDPWGQGTLVTVSS VL: SYELTQPPSVSVSPGQTASITCSGSKLGDKYVSWYQLRPGQSPILVMYENDRRPSGIPERFSGSNSGDTATLTISGTQALDEADFYCQAWETTTTTFVFFGGGTQLTVLG

[0.2, 0.294, 0.35]

This collection of values is drawn from patent US20160264649A1.
